test.name: in vivo
condition.parameters: male, Sprague-Dawley, rat, in vivo, po, 2 g/kg, T max, male Sprague-Dawley rats, oral Veratrum nigrum L. extract 2 g/kg, plasma, n = 6, mean ± SD
Exercise: for every item that follows, state its recorded Tmax.
Give bare numbers, in min.

[[record]]
molecule = "OC[C@H]1O[C@@H](Oc2cc(O)cc(/C=C/c3ccc(O)cc3)c2)[C@H](O)[C@@H](O)[C@@H]1O [Polydatin, polydatin]"
unit_of_measurement = "min"
measured_number = 15.6


Take each entry in turn and give its Tmax.
1. Oc1ccc(/C=C/c2cc(O)cc(O)c2)cc1 [Resveratrol, resveratrol]
2. Cc1c([C@H](C)[C@@H]2NC[C@@H](C)C[C@H]2O)ccc2c1C[C@H]1[C@H]2CC=C2C[C@@H](O[C@@H]3O[C@H](CO)[C@@H](O)[C@H](O)[C@H]3O)CC[C@@]21C [Veratrosine, veratrosine]

Given back:
10.8
4.8
